Target: T1, human IL-23R (human, UniProt Q5VWK5 24-629)
T1 sequence: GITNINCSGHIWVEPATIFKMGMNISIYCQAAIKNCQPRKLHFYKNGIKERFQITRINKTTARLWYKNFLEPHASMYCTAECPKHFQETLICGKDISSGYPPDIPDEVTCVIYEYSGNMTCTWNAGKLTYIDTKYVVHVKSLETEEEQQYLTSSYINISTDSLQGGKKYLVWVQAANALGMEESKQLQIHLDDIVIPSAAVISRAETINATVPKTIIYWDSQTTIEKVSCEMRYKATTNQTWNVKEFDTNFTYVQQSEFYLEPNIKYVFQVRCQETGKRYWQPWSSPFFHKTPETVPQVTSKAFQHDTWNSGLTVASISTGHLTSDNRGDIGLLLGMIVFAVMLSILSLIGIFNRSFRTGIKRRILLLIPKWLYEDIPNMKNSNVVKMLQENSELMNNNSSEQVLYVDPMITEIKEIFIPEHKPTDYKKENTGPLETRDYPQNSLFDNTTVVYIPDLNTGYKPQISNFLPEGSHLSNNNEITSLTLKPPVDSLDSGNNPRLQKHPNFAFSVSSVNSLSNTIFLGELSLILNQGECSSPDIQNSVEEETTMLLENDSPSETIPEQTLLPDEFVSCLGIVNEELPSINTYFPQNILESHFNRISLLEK
Test: cell-based or functional assay
Attribute measured: IC50, inhibition of human IL-23-inducible Kit-225 cell proliferation (ng/mL)
Give the value in ng/mL but do not write ng/mL after it.

{"columns": ["Binder", "Result number"],
 "data": [
  ["fully human antibody 25-3 (antibody, human IgG1, kappa, V domains shown, Human Ig gamma1 / human kappa constant regions; also called 25-3 (fully human); fully human 25-3 antibody) VH: QVQLQESGPGQVKPSQTLSLTCSVSGGSIDSGDHYWTWIRQHPGEVLEWIGYIYSSGHTYYSPSLKSRLTMSLDTSKNQFSLRLSSVTAADTAVYYCARVGDYEWFDTWGQGTLVTVSS VL: DIVMTQSPDSLAVSLGERATINCKSSQTILYPSNNMNYLGWYQQRAGQSPRLLIYWASTRESGVPDRFSGSGSGTDFTLTISSLQAEDVAVYYCQQYYSSLPTFGQGTKVEIKR", 3.5],
  ["fully human antibody 30-16 (antibody, human IgG1, kappa, V domains shown, Human Ig gamma1 / human kappa constant regions; also called 30-16 (fully human); fully human 30-16 antibody) VH: QVQVVQSGAEVKKPGASVKVSCKVSGYTLIELAIHWVRQVPGKGLEWMGGFDPEHGETIYAQKFQGRVTMTEDTSTDTAYMELNNLRSEDTAVYYCAILEAGDLDCWGQGTLVTVSS VL: DIQMTQSPSSVSASVGDRVTITCRASQGISNWLAWYQQKPGKAPKVLIYTASSLQSGVPSRFSGSGSGTDFTLTVSGLQPEDFGTYYCQQANSFPFTFGPGTKVDIKR", 2.3]
]}

With those in mind, consider the next binder.
Q: GET /values?readout=IC50, inhibition of human IL-23-inducible Kit-225 cell proliferation&item= fully human antibody 34-58 (antibody, human IgG1, kappa, V domains shown, Human Ig gamma1 / human kappa constant regions; also called 34-58 (fully human); fully human 34-58 antibody) VH: QVHLVQSGTEVRKPGASVKVSCKVSGYTLNELAIHWVRQAPGKGLEWMGGFDPEHGEIIYAQRFQGRITLPEDTSTDTAYMDLVNLRSEDTAVYFCTTEAAPFDYWGQGSLVIVSS VL: DIQMTQSPSTLSASVGDRVTITCRASQSLSNWLAWYQQKPGKAPKLLIYKASSLESGVPSRFSGSGSGTDFTLTISGLQPDDFATYYCQQYDIYPRTFGQGTKVEIKR
Result: 3.7
